# System: Tribolium castaneum
# ASSAY_NAME: Insecticidal activity against 3 to 8 days old Tribolium castaneum (red flour beetle) assessed as mortality at 1 ug/mL measured after 24 hr by fumigation assay
# Format: functional
Give true when the value for mortality at 1 µg/mL is at least 90%. Give false when it is less.

Answered cases to consult:
MOLECULE	LABEL_VALUE
CC(C)=CCc1cc(-c2coc3cc(O)c(CC=C(C)C)c(O)c3c2=O)ccc1O [LUPALBIGENIN]	false
CC(C)=CCc1c2c(c(O)c3c(=O)c(-c4ccc(O)cc4)coc13)C=CC(C)(C)O2 [WARANGALONE]	false

Now consider the entry below.
[Q] Please indicate if the recorded mortality at 1 µg/mL for C[C@@H]1O[C@@H](OC[C@H]2O[C@@H](Oc3cc(O)c4c(=O)c(-c5ccc(O)cc5)coc4c3)[C@H](O)[C@@H](O)[C@@H]2O)[C@H](O)[C@H](O)[C@H]1O [SPHAEROBIOSIDE] meets or exceeds 90%.
[A] true
